targetOrTestSystem: Glutamate [NMDA] receptor
testDescription: In vitro inhibitory activity against [3H]-TCP binding to PCP receptor in guinea pig brain membrane homogenates
Format: cell membranes, Cavia porcellus
pIC50: −log10 of the molar value.
observationType: pIC50

Some compounds with recorded pIC50:
Cc1cccc(NC(=N)Nc2cccc(C)c2)c1    6.43
NC(=Nc1ccc(Br)cc1)Nc1ccc(Br)cc1    4.47
Cc1cc([N+](=O)[O-])ccc1NC(=N)Nc1ccc([N+](=O)[O-])cc1C    5.37
Cc1cccc(C)c1N=C(N)Nc1c(C)cccc1C    4.49
CCCCNC(=N)NCCCC    4.31

(1) Cc1ccc(N=C(N)Nc2ccc(C)cc2)cc1
(2) Cc1ccccc1N=C(N)Nc1ccccc1I
Which entry shows the lesser value of pIC50 here, 1 or 2 ? // output: label of the selected item 1
(1: 4.51, 2: 5.69)
